target or test system: Histone deacetylase 8 (Homo sapiens, UniProt Q9BY41)
Sequence (Q9BY41 whole entry): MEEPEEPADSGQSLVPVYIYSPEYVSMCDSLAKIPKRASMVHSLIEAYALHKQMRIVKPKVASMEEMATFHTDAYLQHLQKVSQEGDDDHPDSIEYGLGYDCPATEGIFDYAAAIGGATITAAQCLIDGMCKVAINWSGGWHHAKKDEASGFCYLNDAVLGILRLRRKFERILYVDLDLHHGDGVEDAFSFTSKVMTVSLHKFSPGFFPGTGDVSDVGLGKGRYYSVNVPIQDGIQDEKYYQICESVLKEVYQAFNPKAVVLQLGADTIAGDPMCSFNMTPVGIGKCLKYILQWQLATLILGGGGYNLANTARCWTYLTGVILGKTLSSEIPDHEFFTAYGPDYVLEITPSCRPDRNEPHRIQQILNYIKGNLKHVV
assay name: Inhibition of recombinant HDAC8 (unknown origin) using Boc-Lys(trifluoroacetyl)-AMC as substrate pre-incubated for 1 hr followed by substrate addition and measured after 2 hrs by fluorescence based assay
Catalogue of molecules with associated IC50
Please give the number followed by its unit.

- compound: "COc1ccc2c(c1)c(CCNC(C)=O)cn2Cc1ccc(C(=O)NO)cc1"
  IC50: "838 nM"

Pending molecule:
Incoming: Need IC50, item `COc1ccc2[nH]cc(CCN(Cc3ccc(C(=O)NO)cc3)C(=O)/C=C/c3ccc(O)c(OC)c3)c2c1`
Outgoing: 3590 nM

* * *

Species: Homo sapiens
assay name: Selectivity ratio of IC50 for recombinant HDAC3 (unknown origin) to IC50 for recombinant HDAC6 (unknown origin)
Catalogue of molecules with associated Ratio IC50
Provide a numeric answer; units are not to be included.

Solved cases (4 shown):
- compound: "COc1ccc2[nH]cc(CCN(Cc3ccc(/C=C/C(=O)NO)cc3)C(=O)/C=C/c3ccc(O)c(OC)c3)c2c1"
  experimental value: 6
- compound: "COc1ccc2c(c1)c(CCNC(C)=O)cn2Cc1ccc(/C=C/C(=O)NO)cc1"
  experimental value: 3
- compound: "COc1ccc2[nH]cc(CCNC(=O)CN(Cc3ccc(/C=C/C(=O)NO)cc3)C(=O)/C=C/c3ccc(O)c(OC)c3)c2c1"
  experimental value: 2
- compound: "COc1ccc2[nH]cc(CCN(CCCCCC(=O)NO)C(=O)/C=C/c3ccc(O)c(OC)c3)c2c1"
  experimental value: 2

Pending molecule:
Incoming: Need Ratio IC50, item `COc1ccc2c(c1)c(CCNC(C)=O)cn2Cc1ccc(C(=O)NO)cc1`
Outgoing: 57

* * *

target or test system: Histone deacetylase 3 (Homo sapiens, UniProt O15379)
Sequence (O15379 whole entry): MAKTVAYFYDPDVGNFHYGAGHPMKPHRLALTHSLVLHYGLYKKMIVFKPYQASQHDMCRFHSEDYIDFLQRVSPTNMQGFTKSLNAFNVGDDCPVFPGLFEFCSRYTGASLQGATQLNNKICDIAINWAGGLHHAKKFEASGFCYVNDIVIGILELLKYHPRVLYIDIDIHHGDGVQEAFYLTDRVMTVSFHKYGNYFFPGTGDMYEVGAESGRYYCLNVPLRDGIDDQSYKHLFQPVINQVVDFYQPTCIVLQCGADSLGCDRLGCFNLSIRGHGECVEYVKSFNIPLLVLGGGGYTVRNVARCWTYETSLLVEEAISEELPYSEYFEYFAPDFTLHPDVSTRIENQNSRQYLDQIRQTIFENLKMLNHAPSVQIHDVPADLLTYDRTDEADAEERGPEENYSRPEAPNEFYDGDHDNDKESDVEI
assay name: Inhibition of recombinant HDAC3 (unknown origin) using Boc-Lys(acetyl)-AMC as substrate preincubated for 1 hr followed by substrate addition and measured after 2 hrs by fluorescence based assay
The recorded IC50 of each item maps onto one of these classes: low (below 100 nM), medium (100 nM to below 500 nM), high (500 nM or more)

Reference set, count: 5
- compound: "COc1ccc2[nH]cc(CCN(Cc3ccc(C(=O)NO)cc3)C(=O)/C=C/c3ccc(O)c(OC)c3)c2c1"
  group label: "high"
- compound: "COc1ccc2c(c1)c(CCNC(C)=O)cn2Cc1ccc(C(=O)NO)cc1"
  group label: "high"
- compound: "COc1ccc2[nH]cc(CCNC(=O)c3ccc(/C=C/C(=O)NO)cc3)c2c1"
  group label: "low"
- compound: "COc1ccc2c(c1)c(CCNC(C)=O)cn2Cc1ccc(/C=C/C(=O)NO)cc1"
  group label: "medium"
- compound: "COc1ccc2[nH]cc(CCNC(=O)CN(CCCCCC(=O)NO)C(=O)/C=C/c3ccc(O)c(OC)c3)c2c1"
  group label: "medium"

Incoming: Consider `COc1ccc2[nH]cc(CCNC(=O)/C=C/c3ccc(C(=O)NO)cc3)c2c1` . To which IC50 class does it belong?
Outgoing: low

Incoming: Then what about the compound `COc1ccc2[nH]cc(CCN(Cc3ccc(/C=C/C(=O)NO)cc3)C(=O)/C=C/c3ccc(O)c(OC)c3)c2c1` ?
Outgoing: medium

Incoming: Then what about the compound `COc1ccc2[nH]cc(CCNCc3ccc(/C=C/C(=O)NO)cc3)c2c1` ?
Outgoing: low

Incoming: Then what about the compound `COc1ccc2[nH]cc(CCN(CCCCCC(=O)NO)C(=O)/C=C/c3ccc(O)c(OC)c3)c2c1` ?
Outgoing: high

Incoming: Then what about the compound `COc1ccc2[nH]cc(CCNC(=O)CN(Cc3ccc(/C=C/C(=O)NO)cc3)C(=O)/C=C/c3ccc(O)c(OC)c3)c2c1` ?
Outgoing: medium
